TARGET_OF_ASSAY: HIV-1 JR-CSF Env V292A (HIV-1 JR-CSF) (UniProt P20871)
ASSAY_INFO: cell-based or functional assay
Listed here: items and their measured Fold IC50 increase relative to wild-type.

- BINDER: "PGT-126 (antibody, V domains shown) VH: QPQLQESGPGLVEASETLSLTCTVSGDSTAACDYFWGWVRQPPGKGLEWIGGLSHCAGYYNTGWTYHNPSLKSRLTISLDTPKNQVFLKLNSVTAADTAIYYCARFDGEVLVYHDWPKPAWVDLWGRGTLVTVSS VL: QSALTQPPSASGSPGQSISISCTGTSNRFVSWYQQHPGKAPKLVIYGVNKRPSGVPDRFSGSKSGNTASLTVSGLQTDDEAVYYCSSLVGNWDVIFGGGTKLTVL"
  RECORDED_VALUE: "5 fold"

In the following, a different binder is considered.
For this binder ( PGT-123 (antibody, V domains shown) VH: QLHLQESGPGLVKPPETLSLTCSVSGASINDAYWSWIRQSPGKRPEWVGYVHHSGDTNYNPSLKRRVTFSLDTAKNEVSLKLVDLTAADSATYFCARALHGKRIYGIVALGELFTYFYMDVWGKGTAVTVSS VL: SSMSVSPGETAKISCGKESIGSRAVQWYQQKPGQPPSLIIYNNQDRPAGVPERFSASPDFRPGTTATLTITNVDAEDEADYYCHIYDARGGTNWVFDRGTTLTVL ), measured Fold IC50 increase relative to wild-type is 1.7 fold
